targetSystem: T1, human PVRIG on cells (human, UniProt Q6DKI7 1-326)
T1 construct: whole, on cells; over-expressed on HEK cells or endogenous on Jurkat and CD8 T cells; also called hPVRIG; HEK hPVRIG cells
T1 sequence (looked up): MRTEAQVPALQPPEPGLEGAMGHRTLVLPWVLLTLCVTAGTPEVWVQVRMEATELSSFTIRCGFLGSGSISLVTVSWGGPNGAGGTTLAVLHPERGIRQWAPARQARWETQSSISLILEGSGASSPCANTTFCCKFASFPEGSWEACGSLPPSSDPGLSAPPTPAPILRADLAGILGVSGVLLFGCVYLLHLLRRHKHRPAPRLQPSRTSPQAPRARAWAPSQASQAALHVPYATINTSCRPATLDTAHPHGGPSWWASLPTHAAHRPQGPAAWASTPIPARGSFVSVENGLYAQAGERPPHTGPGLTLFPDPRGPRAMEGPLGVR
assayRemarks: FACS, HEK hPVRIG over HEK parental cells, 3.3ug/ml
observable: gMFIr HEK OE/par
Provide a numeric answer; units are not to be included.

Ask | # return recorded gMFIr HEK OE/par for input CHA.7.543 (antibody, V domains shown) VH: QVQLKESGPGLVAPSQSLSITCTVSGFSLSGYGIKWVRQPPGKGLEWLGTIWGDGSTDYNSALKSRLSISKDNSKSQVFLKMTSLQTDDTARYYCASDSLGITFGYWGQGTLVTVSA VL: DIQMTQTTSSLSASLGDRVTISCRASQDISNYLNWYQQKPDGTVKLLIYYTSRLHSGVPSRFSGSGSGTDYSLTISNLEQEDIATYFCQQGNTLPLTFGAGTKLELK
Reply | 49.8

Ask | # return recorded gMFIr HEK OE/par for input CHA.7.549 (antibody, V domains shown) VH: QVQLQQPGTELVKPGASVKLSCKASGFTFTTHWMHWVRQRPGQGLEWIGNIYPSNGGSNYNEKFKTKATLTVDRSSSTAYMHLSSLTSEDSAVYYCARRVNWDGYYFDYWGQGTTLTVSS VL: DIVMTQSQKFMSTSVGDRVSVTCKASQNVGTNVAWYQQKPGQSPKLLIYSASYRYSGVPDRFTGSGSGTDFTLTISNVQSEDLADYFCQQYNSYPLTFGGGTKLEIK
Reply | 29.7

Ask | # return recorded gMFIr HEK OE/par for input CHA.7.546 (antibody, V domains shown) VH: QIQLVQSGPELKKPGETVKISCKASGYTFTTYGMSWVKQAPGKGLKWMGWINTYSGVSTYADDFEGRFAFSLETSVSTAYLQINNLKNEDTATYFCARLGRGSTTGAGYLDVWGTGTTVTVSS VL: DIVLTQSPAIMSASPGEKVSMTCSASSSVSSWYLHWYQQKSGASPKLWIYGTSNLASGVPARFSGSGSGTSYSLTISSVEAEDAATYYCQQYHSDPYTFGSGTKLEIK
Reply | 43.1
